Values compiled from a melting point compilation (Tetko et al.; mined from patent text by program, amines drawn as free bases though some values may be those of a salt).

This listing pairs compounds with measured melting point.

[
  {
    "compound": "CC(CCC(=O)NCCCCCC(=O)NCCCCCO)C1CCC2C3C(O)CC4CC(O[Si](C)(C)C(C)(C)C)CCC4(C)C3CC(O)C12C (centres undefined)",
    "readout.kind": "melting point",
    "recorded.result": "146 to 148 °C"
  },
  {
    "compound": "COC(=O)c1ccc(Cl)c(CSC)c1SC",
    "readout.kind": "melting point",
    "recorded.result": "47.1 °C"
  },
  {
    "compound": "CS(=O)c1ccc2nc(C(F)(F)F)nc(Cl)c2c1 (centres undefined)",
    "readout.kind": "melting point",
    "recorded.result": "105 to 107 °C"
  },
  {
    "compound": "CCOc1ccnc(F)c1",
    "readout.kind": "melting point",
    "recorded.result": "35 to 36 °C"
  },
  {
    "compound": "Cc1c(NC(=O)CC(C)(C)C)c(C)c2c(c1-c1ccsc1)OCC2c1ccc(C(C)C)cc1 (centres undefined)",
    "readout.kind": "melting point",
    "recorded.result": "172 to 174 °C"
  },
  {
    "compound": "COc1c(C(N)=O)sc(C(N)=O)c1N=NN(C)C",
    "readout.kind": "melting point",
    "recorded.result": "226 to 228 °C"
  },
  {
    "compound": "O=C1NCC[C@@H](c2ccc(Oc3ccccc3)cc2)[C@@H]1c1ccccc1 (relative stereo)",
    "readout.kind": "melting point",
    "recorded.result": "157 to 159 °C"
  },
  {
    "compound": "COC(=O)c1ncsc1S(=O)(=O)Cl",
    "readout.kind": "melting point",
    "recorded.result": "94 to 97.5 °C"
  }
]

**Q:** Requested field: melting point. Item: COc1cc(OC)nc(NC(=O)N=NS(=O)(=O)C2OCCN2C)n1 (centres undefined)
**A:** 174 to 175 °C

---

readout.kind: melting point

[
  {
    "molecule": "Cc1cc2n(C)c3ncccc3c(=O)n2n1",
    "readout.kind": "melting point",
    "recorded.result": "242 °C"
  },
  {
    "molecule": "COc1ccc(/C=C2\\C3=C(CCCC3)CCN2C(C)=O)cc1",
    "readout.kind": "melting point",
    "recorded.result": "74.5 to 76 °C"
  },
  {
    "molecule": "CCCCn1c(=O)c2c(ncn2S(C)(=O)=O)n(CCCC)c1=O",
    "readout.kind": "melting point",
    "recorded.result": "98 to 100 °C"
  },
  {
    "molecule": "COc1ccc(/C=C/C(=O)Nc2ccccc2C(=O)OCC(=O)O)cc1OC",
    "readout.kind": "melting point",
    "recorded.result": "206 to 209 °C"
  },
  {
    "molecule": "CC(C)c1nn(-c2ccc(C(F)(F)F)cn2)cc1CCCCOc1ccccc1CC(=O)O",
    "readout.kind": "melting point",
    "recorded.result": "125 to 126 °C"
  }
]

**Q:** For `O=C(NCc1ccc(Cl)cc1)c1cnc2c(F)cc(C#CCCO)cc2c1O` , what is its reported melting point?
**A:** 253 to 255 °C

**Q:** Another: CNCC(O)c1cccc(Cl)c1 (configuration not stated)
**A:** 95.5 to 97 °C

**Q:** Now try `COc1ccc(CC(=O)NCCc2ccc([N+](=O)[O-])cc2)cc1` .
**A:** 109 to 110 °C

**Q:** And then `N#CCc1ccc2onc(-c3ccc(Cl)cc3)c2c1` , what is it?
**A:** 118 °C

**Q:** And the next one, `COc1cccc([N+](=O)[O-])c1NC(=O)OCc1ccccc1` ?
**A:** 78 to 80 °C

**Q:** Also need `CCOC(=O)c1cc(NCc2ccccc2)c(Nc2cccc(C)c2)c(S(N)(=O)=O)c1` , thanks.
**A:** 169 to 170 °C

**Q:** Now consider `O=C1NC(=O)c2c1c(-c1ccccc1)cc1c2c2cc(O)ccc2n1CCCBr` and answer again.
**A:** 280 to 282 °C

**Q:** Try `CCc1nc([N+](=O)[O-])c(CBr)n1C` next.
**A:** 91 to 93 °C

**Q:** And `CCCCc1nc2c(N)nc3ccccc3c2s1` ?
**A:** 149 to 151 °C

**Q:** Similarly, `CCC(=NO)C(C)(C)NCCCN` ?
**A:** 72 to 74 °C

**Q:** Thanks! And `N#Cc1ccc(-c2ccc(-c3ccc(Br)o3)o2)nc1` ?
**A:** 143 to 145 °C

**Q:** Same lookup for `CNC(=O)c1cc(C#N)cc(C)c1N` , please.
**A:** 202 to 203 °C

**Q:** Another molecule to look at: `CC(=O)N1CCC(C(=O)c2cc(F)ccc2F)CC1`
**A:** 82 to 87 °C

**Q:** Now this one: `Oc1cnc2cc(F)ccc2n1`
**A:** 304 to 305 °C

**Q:** Would you mind doing `COc1ccc(CCCN)cc1Cl` as well?
**A:** 55 to 56 °C

**Q:** Follow-up item: `CCCc1c(OCCCOc2cc(O)c(-c3cocn3)cc2CC)cccc1Oc1ccccc1C(=O)O`
**A:** 60 to 61 °C

**Q:** Same for `Cc1ccc(CSc2nc3cc4c(cc3[nH]2)CCC4)nc1`
**A:** 157 to 158 °C

**Q:** Another molecule: `O=C1c2cccc3cccc(c23)C(=O)N1CCCCCBr`
**A:** 113 to 115 °C

**Q:** Now consider `Cc1cnc2n1-c1ccc(Cl)cc1C(c1ccccc1)=NC2` .
**A:** 190 to 191 °C

**Q:** Please do the same for `O=C(O)CCCc1c([N+](=O)[O-])cc(O)c(O)c1[N+](=O)[O-]` as well.
**A:** 165 to 170 °C

**Q:** Proceed to `CC1(C)N=C(NC#N)N=C(NC(=O)c2nc(Cl)c(N)nc2N)N1`
**A:** 342 °C
